# Tested on: A498
# condition.info: A498, 48 h
quantity.kind: TGI (µM)
Entry rule: numbers only, all in µM.

Here is how some compounds turned out for TGI.
>  <compound>
CC(C)C(C(=O)O)N1C(=O)/C(=C/C=C/c2ccc([N+](=O)[O-])o2)SC1=S (centres unmarked) [5b]

>  <quantity.kind>
TGI

>  <reported.value>
4.81

$$$$
>  <compound>
O=C(O)CCN1C(=O)/C(=C/C=C/c2ccc([N+](=O)[O-])o2)SC1=S [12b]

>  <quantity.kind>
TGI

>  <reported.value>
27.4

$$$$
>  <compound>
O=C(O)C(c1ccccc1)N1C(=O)/C(=C/C=C/c2ccc([N+](=O)[O-])o2)SC1=S (centres unmarked) [9b]

>  <quantity.kind>
TGI

>  <reported.value>
36.5

$$$$
>  <compound>
CCCC(C(=O)O)N1C(=O)/C(=C/C=C/c2ccc([N+](=O)[O-])o2)SC1=S (centres unmarked) [4b]

>  <quantity.kind>
TGI

>  <reported.value>
7.21

$$$$

With those in mind, consider the next compound.
Request: Entry CCCCC(C(=O)O)N1C(=O)/C(=C/C=C/c2ccc([N+](=O)[O-])o2)SC1=S (centres unmarked) [6b] has what TGI?
Result: 8.28

====

# Tested on: OVCAR-4
# condition.info: human, 48 h
quantity.kind: CC50 (µM)
Entry rule: numbers only, all in µM.

Request: Entry O=C(O)CCCN1C(=O)/C(=C/C=C/c2ccc([N+](=O)[O-])o2)SC1=S [13b] has what CC50?
Result: 5.54

====

Measured CC50 accompanies every entry in the list below.
# Tested on: SNB-19
# condition.info: human, 48 h
Entry rule: numbers only, all in µM.

>  <compound>
O=C(O)CCCCCN1C(=O)/C(=C/C=C/c2ccc([N+](=O)[O-])o2)SC1=S [14b]

>  <reported.value>
6.67

$$$$

With those in mind, consider the next compound.
Request: Entry O=C(O)CCCN1C(=O)/C(=C/C=C/c2ccc([N+](=O)[O-])o2)SC1=S [13b] has what CC50?
Result: 5.5

====

# Test system: SN12C
# condition.info: human, 48 h
quantity.kind: CC50 (µM)
Entry rule: numbers only, all in µM.

Request: Entry O=C(O)CCCCCN1C(=O)/C(=C/C=C/c2ccc([N+](=O)[O-])o2)SC1=S [14b] has what CC50?
Result: 3.24

====

# Test system: MALME-3M
# procedure.text: NCI-60 SRB screen
# condition.info: MALME-3M, 48 h
quantity.kind: log10 of TGI (log10 of the value in µM)
Note: values are log10 of TGI expressed in µM.

Here is how some compounds turned out for log10 of TGI.
>  <compound>
CCCCC(C(=O)O)N1C(=O)/C(=C/C=C/c2ccc([N+](=O)[O-])o2)SC1=S (centres unmarked)

>  <log10 of TGI>
0.65

$$$$
>  <compound>
O=C(O)C(c1ccccc1)N1C(=O)/C(=C/C=C/c2ccc([N+](=O)[O-])o2)SC1=S (centres unmarked)

>  <log10 of TGI>
1.27

$$$$
>  <compound>
CC(C)C(C(=O)O)N1C(=O)/C(=C/C=C/c2ccc([N+](=O)[O-])o2)SC1=S (centres unmarked)

>  <log10 of TGI>
0.44

$$$$
>  <compound>
O=C(O)CCN1C(=O)/C(=C/C=C/c2ccc([N+](=O)[O-])o2)SC1=S [12b]

>  <log10 of TGI>
0.22

$$$$

Request: Entry CCCC(C(=O)O)N1C(=O)/C(=C/C=C/c2ccc([N+](=O)[O-])o2)SC1=S (centres unmarked) has what log10 of TGI?
Result: 0.53

meta.source: paper PMC12655351
